Below: a set of entries, each annotated with reported 85% survival conc..
Test system: THP-1
Conditions: human
Quick reminder: number only, in µg/mL, skip the unit.

Incoming: Name the recorded 85% survival conc. of the item CO[C@H]1/C=C/O[C@@]2(C)Oc3c(C)c(O)c4c(O)c(c(/C=N/N5CCN(C)CC5)c(O)c4c3C2=O)NC(=O)/C(C)=C\C=C\[C@H](C)[C@H](O)[C@@H](C)[C@@H](O)[C@@H](C)[C@H](OC(C)=O)[C@@H]1C in your answer.
Outgoing: 10

Incoming: Quote 85% survival conc. reported for NNC(=O)c1ccncc1 please.
Outgoing: 100

Incoming: Identify 85% survival conc. associated with the molecule CC[C@@H](CO)NCCN[C@@H](CC)CO
Outgoing: 500

Next:
Incoming: Specify measured 85% survival conc. for [H]/N=C(/N)N[C@H]1[C@H](O)[C@@H](O)[C@H](O[C@@H]2O[C@@H](C)[C@](O)(C=O)[C@H]2O[C@@H]2O[C@@H](CO)[C@H](O)[C@@H](O)[C@@H]2NC)[C@@H](N/C(N)=N\[H])[C@@H]1O .
Outgoing: 100
